# target-of-assay: T1, huIL-17RA-FLAG-polyHis (human, UniProt Q96F46 33-320)
# T1 construct: also called IL-17RA-FLAG-pHis; wild-type IL-17RA
# assay-details: binning; IL-17RA held by bead mAb D
experimental-endpoint: normalized MFI
One number for each entry.

AMH12/AML12 (antibody, IgG2, V domains shown, human mAb from IgG2 XenoMouse mice; also called AM-12; antibody M) VH: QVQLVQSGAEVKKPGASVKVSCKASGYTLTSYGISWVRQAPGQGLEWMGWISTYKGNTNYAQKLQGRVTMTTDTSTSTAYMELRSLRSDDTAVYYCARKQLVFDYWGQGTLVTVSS VL: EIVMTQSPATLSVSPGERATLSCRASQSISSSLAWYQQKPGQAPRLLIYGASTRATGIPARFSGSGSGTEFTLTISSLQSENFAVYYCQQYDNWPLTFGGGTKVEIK: 888

Below are 3 binders. Give each one its normalized MFI.
1. AMH7/AML7 (antibody, IgG2, V domains shown, human mAb from IgG2 XenoMouse mice; also called AM-7; antibody D) VH: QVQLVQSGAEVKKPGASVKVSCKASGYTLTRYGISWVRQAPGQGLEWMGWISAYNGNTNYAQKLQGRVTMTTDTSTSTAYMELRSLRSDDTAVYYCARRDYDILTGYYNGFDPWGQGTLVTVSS VL: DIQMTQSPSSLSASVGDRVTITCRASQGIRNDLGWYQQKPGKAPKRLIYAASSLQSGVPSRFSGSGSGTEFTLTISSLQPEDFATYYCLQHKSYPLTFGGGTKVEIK
2. AMH10/AML10 (antibody, IgG2, V domains shown, human mAb from IgG2 XenoMouse mice; also called AM-10; antibody F) VH: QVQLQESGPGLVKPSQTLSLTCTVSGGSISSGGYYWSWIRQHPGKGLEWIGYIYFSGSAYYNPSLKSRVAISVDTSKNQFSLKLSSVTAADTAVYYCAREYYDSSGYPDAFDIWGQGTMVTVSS VL: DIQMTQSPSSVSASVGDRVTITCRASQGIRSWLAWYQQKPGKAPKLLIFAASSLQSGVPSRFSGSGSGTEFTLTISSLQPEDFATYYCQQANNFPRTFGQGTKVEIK
3. AMH6/AML6 (antibody, IgG2, V domains shown, human mAb from IgG2 XenoMouse mice; also called AM-6; antibody E) VH: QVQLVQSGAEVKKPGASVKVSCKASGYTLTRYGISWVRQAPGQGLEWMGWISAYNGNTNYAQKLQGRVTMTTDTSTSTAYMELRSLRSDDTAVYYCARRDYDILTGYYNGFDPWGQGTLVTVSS VL: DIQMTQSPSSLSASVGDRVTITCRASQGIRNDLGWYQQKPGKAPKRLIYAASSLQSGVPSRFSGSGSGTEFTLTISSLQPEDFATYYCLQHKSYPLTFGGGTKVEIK

207
179
168
